For each record, write down the corresponding furin cleavage Z-score.
target-under-test: furin, P09958;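 note: purified furin at 1:10 enzyme:substrate in 50 mM HEPES pH 7.5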
Sequence (P09958 whole entry): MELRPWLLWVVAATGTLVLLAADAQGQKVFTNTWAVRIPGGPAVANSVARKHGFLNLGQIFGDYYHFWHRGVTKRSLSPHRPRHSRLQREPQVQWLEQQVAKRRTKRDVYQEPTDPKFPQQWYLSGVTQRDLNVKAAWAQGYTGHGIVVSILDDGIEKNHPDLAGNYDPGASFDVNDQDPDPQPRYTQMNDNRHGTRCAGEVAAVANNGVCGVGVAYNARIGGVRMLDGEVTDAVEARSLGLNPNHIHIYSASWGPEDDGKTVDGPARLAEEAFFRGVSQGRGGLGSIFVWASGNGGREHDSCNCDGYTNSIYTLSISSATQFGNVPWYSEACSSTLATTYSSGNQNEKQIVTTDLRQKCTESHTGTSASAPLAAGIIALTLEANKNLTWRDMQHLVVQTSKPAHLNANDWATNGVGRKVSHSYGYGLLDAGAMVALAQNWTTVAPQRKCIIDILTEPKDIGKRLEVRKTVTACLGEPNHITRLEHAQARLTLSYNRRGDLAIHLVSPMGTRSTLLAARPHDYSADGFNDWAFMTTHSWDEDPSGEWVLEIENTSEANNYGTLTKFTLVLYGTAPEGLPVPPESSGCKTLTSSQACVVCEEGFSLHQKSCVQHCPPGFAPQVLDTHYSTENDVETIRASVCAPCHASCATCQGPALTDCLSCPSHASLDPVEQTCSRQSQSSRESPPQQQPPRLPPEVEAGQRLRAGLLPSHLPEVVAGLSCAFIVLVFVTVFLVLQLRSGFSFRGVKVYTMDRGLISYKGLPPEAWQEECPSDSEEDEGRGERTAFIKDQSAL
method: furin cleavage Z-score vs untreated control; higher = more cleavage, active = 3.5 or more, inactive = 1 or less, 8 variable residues between constant flanks
measurement-setup: 30 min
The other results are listed elsewhere or left out. The true hit rate is not given.
Keep the answer to the number alone.

Q: Using the record for CALHKRQVGDAGNASASA [FS-1675] , report its furin cleavage Z-score.
Result: 0.074

Q: Lookup CAKWSRHRRMAGNASASA [FS-175]
Result: 11.2

Q: Lookup CAGLEVVTSTAGNASASA [HC2276]
Result: -0.958

Q: Lookup CAHGLSAFSLAGNASASA [HC1604]
Result: 1.37

Q: Lookup CAPNSRLARNAGNASASA [FS-475]
Result: 6.41

Q: Lookup CAQRNLKKRGAGNASASA [FS-914]
Result: 11.1

Q: Lookup CARQPRSNGDAGNASASA [FS-2292]
Result: 1.56

Q: Lookup CADTTIMAKNAGNASASA [HC1438]
Result: 0.93

Q: Lookup CALLADARVCAGNASASA [HC523]
Result: -1.13

Q: Lookup CALLARDRRQAGNASASA [FS-1025]
Result: 7.76

Q: Lookup CAMEECSQHTAGNASASA [HC1778]
Result: 0.869

Q: Lookup CATQSRIRRMAGNASASA [FS-511]
Result: 6.25

Q: Lookup CAMIHRFWKSAGNASASA [FS-1376]
Result: -1.26

Q: Lookup CAYIPRILGPAGNASASA [FS-1875]
Result: -2.27

Q: Lookup CARRRRTAFAAGNASASA [FS-2798]
Result: 7.17

Q: Lookup CAGRTGRGKPAGNASASA [HC905]
Result: -1.55

Q: Lookup CANGFRHARNAGNASASA [FS-466]
Result: -0.259

Q: Lookup CAAASRLARGAGNASASA [FS-211]
Result: 0.636

Q: Lookup CAVVGVVCAAAGNASASA [HC1107]
Result: -0.152

Q: Lookup CAMRLRIRRMAGNASASA [FS-1601]
Result: 9.1

Q: Lookup CAIFSRVKKSAGNASASA [FS-802]
Result: 3.95

Q: Lookup CALKHRVKKSAGNASASA [FS-1358]
Result: 8.6

Q: Lookup CAIFSRCARSAGNASASA [FS-1343]
Result: 1.19

Q: Lookup CAWRVSAEEYAGNASASA [HC1202]
Result: -0.815

Q: Lookup CARRRRKVLAAGNASASA [FS-2181]
Result: 1.13

Q: Lookup CALRTREKRGAGNASASA [FS-549]
Result: 5.83

Q: Lookup CATQRRGRTGAGNASASA [HC903]
Result: -0.351

Q: Lookup CAICESAGVQAGNASASA [HC1532]
Result: -1.02

Q: Lookup CAMEETSQHLAGNASASA [HC16]
Result: 1.08

Q: Lookup CANAHRDKKSAGNASASA [FS-831]
Result: -2.16
